// data source = the supplement of paper PMC11865577

In this section we review reported pull-down binding Z-score values for a set of sequences.
Test system: TO-N3 (biotin conjugate)
Assay Explanation: pull-down binding Z-score (relative to library population); higher = stronger binding
Test Conditions: RNA library: Library-2
// return a plain number; no unit text

Some sequences with recorded pull-down binding Z-score:
| Residue String | pull-down binding Z-score |
| --- | --- |
| GGGCAAGCUGUCUCAAAUGUCC [IAV_invivo_PA_3_Motif_10+IAV_invivo_PA_3_Motif_10] | -0.543 |
| GGCCAUUAGAGGCC [IAV_invivo_PB2_1_Motif_29+IAV_invivo_PB2_1_Motif_29] | -0.257 |
| CAACUGAAAUCUAUCAGGCCGGUAGCACACCUUGUAAUGGUGUUGAAGGUUUUAAUUG [SHAPE_invivo_SARS-CoV-2_Motif_433] | -0.566 |

Give pull-down binding Z-score (TO-N3 (biotin conjugate)) of the following sequence: AUCUCCUUUAGGAAAACCUUCUGUGGGGAGU [hsa-mir-1296]
-0.275

Please tell me: pull-down binding Z-score of GUCUGGUAGUCGGAC [IAV_invivo_NA_6_Motif_1+IAV_invivo_NA_6_Motif_1] , system TO-N3 (biotin conjugate)?
-0.173

Record lookup: for TO-N3 (biotin conjugate), what pull-down binding Z-score belongs to UCUGACAGUCCAUGUGAGUCUCAUGGAAAACAAGUAGUGUCAGA [SHAPE_invivo_SARS-CoV-2_Motif_364] ?
-0.868

Form field: pull-down binding Z-score recorded for AUGGUAAGUGCGAUACUUACCUG [U1snRNP5ss-24] with TO-N3 (biotin conjugate) (enter value)
-0.213

What is its pull-down binding Z-score for TO-N3 (biotin conjugate)? Entry: CCUGUUUGAAUAUUUCACCAGAAACAGG [hsa-mir-4433b]
-0.402

Look up pull-down binding Z-score with TO-N3 (biotin conjugate) for this sequence: GCAAGUUGAAUCUGAUGAUUACAUAGCUACUAAUGGACCACUUAAAGUGGGUGGUAGUUGUGUUUUAAGCGGACACAAUCUUGC
-0.805

// fetch TO-N3 (biotin conjugate) pull-down binding Z-score for GGGGCGUUUAUGCAACCC [IAV_invivo_PB1_2_Motif_33+IAV_invivo_PB1_2_Motif_33]
-0.497

Kindly state the measured pull-down binding Z-score obtained for CCACGCUCGUUCCGACACCGGAACGGCACUCGACACCGAGUGCAGCGUGG [3-way model-3_NoName] with TO-N3 (biotin conjugate).
1.51

###

Tested on: TO-3-N3 (biotin conjugate)
Assay Explanation: pull-down binding Z-score (relative to library population); higher = stronger binding
Test Conditions: RNA library: Library-2
yes (1) means recorded pull-down binding Z-score is -0.6 or above; no (0) means it is below -0.6.

As a guide, the following entries are already answered.
| Residue String | Classification |
| --- | --- |
| UUUAGAUUUAAAUAGUGAUUGUCUAG [hsa-mir-29b-1] | yes (1) |
| GUGAAUUCAACAU [DMSMaPseq_invitro_SARS-CoV-2_Motif_308] | yes (1) |

Check if pull-down binding Z-score >= -0.6 (inclusive). Item: CAGGUGACUUUGAUACUUACCUG [U1snRNP5ss-18]
no (0)

Entry GUGGUGAGACACUUGGUGUCCUUGUCCCUCAUGUGGGCGAAAUACCAGUGGCUUACCGC : is its pull-down binding Z-score no less than -0.6?
yes (1)

Entry GGGAGCGGCCCUCACAUUGAUGGCUCCU [hsa-mir-6727] : is its pull-down binding Z-score no less than -0.6?
yes (1)

Test whether the sequence UGUCAUUACUUUUAACUGUA [hsa-mir-548h-5] records pull-down binding Z-score of -0.6 or higher.
yes (1)

Textbook exercise: given the entry UCUCCUCAUUUACUGUGAAUGUGAGGGGA [IAV_invivo_PB2_1_Motif_31+IAV_invivo_PB2_1_Motif_31] , state whether its pull-down binding Z-score is greater than or equal to -0.6.
yes (1)

Please indicate if the recorded pull-down binding Z-score for GUUGUAGACGGUUGUAAUUCAUCAACUUGUAUGAUGUGUUACAAACGUAAUAGAGC [SHAPE_invivo_SARS-CoV-2_Motif_153] meets or exceeds -0.6.
yes (1)

Evaluate CGGGACCAACGAGGAAAUGUACUACUGUCUCCCG [IAV_invivo_PB2_1_Motif_23+IAV_invivo_PB2_1_Motif_23] : pull-down binding Z-score at minimum -0.6?
yes (1)

Form field: pull-down binding Z-score at least -0.6? Entry: GACAAUGUCUUAUCUACUUUUAUUUCAGCAGCUCGGCAAGGGUUUGUUGAUUCAGAUGUAGAAACUAAAGAUGUUGUU
yes (1)
